measurementLabel: melting point

These recorded examples may help you get a feel for the data.
CCCC(=O)Nc1ccc(-n2cc(CCCOc3c(CC(=O)O)cccc3OC)c(C(C)C)n2)nc1    119 to 120 °C
FC1(N2CCOCC2)C=C(Cl)C=CC1NC(=S)C1C=CCCC1 (stereo not given)    86 to 88 °C
Oc1cccc(C(O)CCCCCOc2cccc(Cl)c2)c1 (stereo not given)    125 to 127 °C
O=C(O)c1csc(Nc2ccc(Cl)c(C(F)(F)F)c2)n1    254 to 256 °C
CCOC(=O)CC1(O)c2ccccc2C=Cc2ccccc21    93 to 99 °C
Cc1ccc(S(=O)C(C(=O)OC(C)(C)C)C(O)CC(OC2CCCCO2)c2ccc(Oc3ccccc3)cc2)cc1 (stereo not given)    140 to 145 °C
C=CS(=O)(=O)NCc1ccc(OC)cc1    68 to 69 °C
Cc1cc(F)cc(Oc2ccc([C@@H]3CCCN4CCS(=O)(=O)N=C34)cc2)c1    158 to 159 °C
CCn1nc(-c2ccc(OC)cc2)cc(C(=O)NC)c1=O    122 to 123 °C
OCc1ccc(CCc2ccncc2)cc1    163 to 166 °C

Fill in reported melting point for this entry: "COc1ccc(C(=O)Nc2nc3ccc(N(C)C)cc3c(N=Cc3ccccc3)c2C#N)cc1"
185 °C

Fill in reported melting point for this entry: "O=C(O)Cc1ccc2c(c1)CCc1ccccc1O2"
135 to 137 °C

Fill in reported melting point for this entry: "CON=C(c1ccccc1COc1cccc(Cl)c1)n1ccnc1"
96.5 to 97.5 °C

Fill in reported melting point for this entry: "CCC[C@@H]1CCC[C@H](NC(=O)OC(C)(C)C)C(=O)N1"
114 to 116 °C

Fill in reported melting point for this entry: CC(Cn1ncnn1)n1nnc2cc3c(=O)n(C(C)Cn4ncnn4)nnc3cc2c1=O (stereo not given)
64 to 66 °C

Fill in reported melting point for this entry: "CC(=C1SCCS1)c1ccc(F)cc1"
27 to 31 °C

Fill in reported melting point for this entry: "Cn1cc(C2=C(c3c4n(c5ccccc35)CCN(C(=S)n3ccnc3)C4)C(=O)NC2=O)c2ccccc21"
244 to 247 °C
